test system: SKBR3; assay: relative cell number vs DMSO control (72 h) (% of DMSO); higher = less growth inhibition (more cells); conditions: sgRNA knockout: sgNT, 100 nM
Below, each entry is listed with its recorded relative cell number.
I only need the number, thanks.

Some solved cases for reference:
> print(dat)
                                   molecule  target.system  result
1  Cc1cnc(Nc2ccc(OCCN3CCCC3)cc2)nc1Nc1cccc(S(=O)(=O)NC(C)(C)C)c1          SKBR3    68.7
2  CC/C(=C(\c1ccc(O)cc1)c1ccc(OCCN(C)C)cc1)c1ccccc1 [4-Hydroxytamoxifen]          SKBR3     100
3  C=C(C)[C@@H]1CC[C@]2(C(=O)O)CC[C@]3(C)[C@H](CC[C@@H]4[C@@]5(C)CC[C@H](O)C(C)(C)[C@@H]5CC[C@]43C)[C@@H]12          SKBR3      95
4  CC(C)n1c(/C=C/C(O)CC(O)CC(=O)O)c(-c2ccc(F)cc2)c2ccccc21 (stereo unspecified)          SKBR3    87.3
5  CCOC(=O)c1ccc(N2NC(=O)C(=Cc3ccc([N+](=O)[O-])o3)C2=O)cc1          SKBR3    83.5
6  Cc1ccc(S(=O)(=O)OCC(=O)Nc2ccc(C(=O)O)c(O)c2)cc1          SKBR3    77.3

Need relative cell number, item Cc1ccc(C(=O)N(CCCN)[C@@H](c2oc3cc(Cl)ccc3c(=O)c2Cc2ccccc2)C(C)C)cc1
11.3

Need relative cell number, item C#Cc1cccc(Nc2ncnc3cc(OCCOC)c(OCCOC)cc23)c1
97.3

Need relative cell number, item CN(C)C(=O)c1ccc(S(=O)(=O)c2ccc(NC(=O)[C@@](C)(O)C(F)(F)F)c(Cl)c2)cc1
103

Need relative cell number, item CC(C)(C#N)c1cc(Cn2cncn2)cc(C(C)(C)C#N)c1
118

Need relative cell number, item CC(C)(C)c1cnc(CSc2cnc(NC(=O)C3CCNCC3)s2)o1
89.5

Need relative cell number, item CN1CCN(CCCN2c3ccccc3Sc3ccc(C(F)(F)F)cc32)CC1
79

Need relative cell number, item Cc1ccc(C(=O)Cn2c3c(sc2=N)CCCC3)cc1
84.2

Need relative cell number, item Cc1ncc([N+](=O)[O-])n1CC(O)CCl (stereo unspecified)
102

Need relative cell number, item Cc1cc(C2CCCCC2)n(O)c(=O)c1
83.3

Need relative cell number, item COc1cc2ncnc(Nc3ccc(F)c(Cl)c3)c2cc1OCCCN1CCOCC1
95.3
